tested on: UACC-257 melanoma; test: NCI-60 one-dose screen, 48 h (100 = growth as untreated, 0 = no growth, -100 = all killed); settings: 10 µM unless noted
Compounds without any hit were thinned out: in the full panel of roughly 83,000, 20% have a hit.
growth: recorded values

{"columns": ["compound", "growth, %"],
 "data": [
  ["COc1ccc(OC)c(-c2c(C#N)c(-c3ccco3)nc3c2c(-c2ccccc2)nn3-c2ccccc2)c1", 99.7],
  ["C#CCn1c2c(c3ccccc31)C[C@]1(C)[C@H]3CC[C@@H]4[C@@H]5C(=CCC[C@H]5C(=C)C)CC[C@@]4(C)[C@]3(C)CC[C@H]1C2(C)C", 108],
  ["O=[N+]([O-])c1ccc(N/N=C(\\C(=N/Nc2ccc([N+](=O)[O-])cc2[N+](=O)[O-])c2ccccc2)c2ccccc2)c([N+](=O)[O-])c1", 95.2],
  ["Cc1cc(C=O)c(C)c2c1[nH]c1ccccc12", 78.6],
  ["O=C1c2cc3c(cc2-c2c1c1ccc(Cl)cc1c(=O)n2C[C@H](O)[C@@H](O)[C@H](O)CO)OCO3", -49.4],
  ["Cc1cc(N(CCCNc2ccnc3cc(Cl)ccc23)Cc2ccco2)nc(N2CCOCC2)n1", 106],
  ["CCCCCCCCNc1cccc2c1C(=O)c1ccccc1C2=O", 98.2],
  ["COc1ccc(-c2n/c(=C\\c3c(O)[nH]c4ccc(OC)cc34)cc3c2=Nc2ccccc2-3)cc1", 83.6],
  ["COc1cc2[nH]c(C(=O)c3cc(OC)c(OC)c(OC)c3)c(N)c2cc1C#CC1CC1", 67.9],
  ["COc1ccc(-c2cc(/C=C/C(=O)c3ccc(OC)c(OC)c3)[nH]n2)cc1", 73.9],
  ["Nc1ccccc1NC(=O)c1ccc(CN2CCC/C(=C\\c3ccccn3)C2=O)cc1", 26.3],
  ["NC1=NN=C2N(N)C(=O)c3cnn(-c4ccccc4)c3N2c2nc(-c3ccccc3)cc(-c3ccccc3)c21", 108],
  ["COc1cc(/C=N/Nc2ncnc3c2c(C)nn3-c2ccc(F)cc2)ccc1O", 114],
  ["Cc1ccc(S(=O)(=O)Nc2ccc(-c3cc(-c4cccc(F)c4)c(C#N)c(N)n3)cc2)cc1", 41.9],
  ["O=c1[nH]c2c3ccncc3cc(-c3cccc(Cl)c3)c2c2cnccc12", 49.5],
  ["N#CC1=C(N)Oc2ccc3ccccc3c2C1c1ccccc1 (stereo unspecified)", 61.7],
  ["C/C(=N\\Nc1cc(C)c2cc(C)ccc2n1)c1ccccn1", -73.5],
  ["CN(C)c1ccc(-c2ccc(-c3ccc(C(=N)N)c(F)c3)s2)cc1", 111],
  ["Cn1c2c(c3ccc(Cl)cc31)-n1cccc1C2=O", 106],
  ["COc1cc2nc(Cl)nc(Nc3cccc(C(=O)/C=C/c4ccc(Br)cc4)c3)c2cc1OC", 107],
  ["Cc1cc(C)n(Cc2cc(C(C)(C)C)cc(C(C)(C)C)c2)c(=O)c1C#N", 102]
]}

====

tested on: HOP-62 NSCLC; test: NCI-60 one-dose screen, 48 h (100 = growth as untreated, 0 = no growth, -100 = all killed); details: 10 µM unless noted
About 83,000 compounds went through this panel and 20% of them were active in at least one assay; those are over-represented in the sample as a whole.
Please note: 1 applies when growth is 50% or greater, and -1 applies otherwise.

{"columns": ["smilesInput", "discreteLabel"],
 "data": [
  ["C=C(C)[C@@H]1CC[C@]2(C(=O)N3CCCNCC3)CC[C@]3(C)[C@H](CC[C@@H]4[C@@]5(C)CCC(=O)C(C)(C)[C@@H]5CC[C@]43C)[C@@H]12", 1],
  ["COC(=O)[C@]12CC[C@@H](C)[C@H](C)[C@@H]1C1=CC[C@@H]3[C@@]4(C)C[C@@H](OC(C)=O)[C@H](OC(C)=O)[C@@](C)(COC(C)=O)[C@@H]4[C@H](O)C[C@@]3(C)[C@]1(C)CC2", -1],
  ["Cn1cc(-c2nc(-c3cn(C)c4ncccc34)cs2)c2cc(F)ccc21", 1],
  ["C=C1C(=O)O[C@H]2[C@H]1CC/C(Cn1cc(-c3ccc(F)cc3)nn1)=C\\CC[C@@]1(C)O[C@@H]21", -1],
  ["CC(=O)Oc1ccccc1C(=O)/C=C/c1cccc([N+](=O)[O-])c1", 1]
]}

====

tested on: MALME-3M melanoma; assay: NCI-60 one-dose screen, 48 h; conditions: 10 µM unless noted
The panel holds about 83,000 compounds, 20% with a hit somewhere; the sample as a whole holds those more often. Activity calls are given as the source filed them. The calls were made as follows: active = growth percent below 10; inactive = the rest.
Labels: active, inactive

{"columns": ["molecule", "discreteLabel"],
 "data": [
  ["Cc1cc2nc3c4cc(N)ccc4n(CCN(C)C)c3nc2cc1C", "active"],
  ["Cn1cc(-c2csc(-c3cn(CCN)c4ccc(F)cc34)n2)c2cccnc21", "inactive"],
  ["NC1=NN=C2N(N)C(=O)c3cnn(-c4ccccc4)c3N2c2nc(-c3ccccc3)cc(-c3ccccc3)c21", "inactive"],
  ["NC1=C(C/C(N)=N\\O)C(c2ccccc2Cl)c2c(ccc3ccccc23)O1 (centres undefined)", "inactive"],
  ["COc1cc2ncnc(Nc3ccc(OCc4cccc(F)c4)c(Cl)c3)c2cc1NC(=O)C1CCCC1", "inactive"],
  ["CCCCn1c(-c2ccc(O)cc2)cn2c3c(=O)[nH]c(=O)n(C)c3nc12", "inactive"],
  ["NS(=O)(=O)c1ccc(CCNC(=O)/C=C/c2ccc(Cl)cc2)cc1", "inactive"],
  ["C[C@@H](C(=O)O)c1ccc2c3cc(Cl)ccc3n(Cc3cc(=O)oc4ccc(Cl)cc34)c2c1", "inactive"],
  ["Cc1nn(-c2ccc(Cl)cc2)c(=O)n1CCn1cnc2ccccc21", "inactive"],
  ["COC(=O)[C@]12CC[C@@H](C(/C=C/c3cccnc3)=N/O)[C@@H]1[C@H]1CC[C@@H]3[C@@]4(C)CC(=C/c5cccnc5)/C(=N/O)C(C)(C)[C@@H]4CC[C@@]3(C)[C@]1(C)CC2", "inactive"],
  ["CCSc1ncnc2c1ncn2C1OC(CO)C(O)C1O (centres undefined)", "inactive"],
  ["COc1ccc2c(c1)c(-c1nc(-c3cn(C)c4ncccc34)cs1)cn2CCN", "inactive"],
  ["CC(CNc1nc(Nc2ccc(Cl)c(Cl)c2)nc(C(Cl)(Cl)Cl)n1)N(C)C (centres undefined)", "inactive"],
  ["CC1(C)NC2=C(C(Nc3cccnc3)N1)C(c1ccc([N+](=O)[O-])cc1)C(C(=O)c1ccc(N=[N+]=[N-])cc1)O2 (centres undefined)", "inactive"],
  ["CCCCCCCCNc1cccc2c1C(=O)c1ccccc1C2=O", "inactive"],
  ["CCC1C(=O)COC1=O (centres undefined)", "inactive"],
  ["O=C1NC(=Nc2ccc(S(=O)(=O)Nc3nccs3)cc2)S/C1=C\\c1coc2ccccc2c1=O", "inactive"],
  ["CN1CCN(CCOc2ccc(-c3cnc4c(-c5cccc(F)c5)cnn4c3)cc2)CC1", "inactive"],
  ["Cc1nc([P+](c2ccccc2)(c2ccccc2)c2ccccc2)c(Sc2sc(-c3ccccc3)nc2[P+](c2ccccc2)(c2ccccc2)c2ccccc2)o1", "active"],
  ["COc1cc(-c2cc3ncccc3c3nc(OCCN(C)C)c4cccnc4c23)cc(OC)c1OC", "active"],
  ["CN1CCN(c2ccc3nc(-c4[nH]ncc4Nc4ncnc5c4OCCCN5)[nH]c3c2)CC1", "active"],
  ["NC(Cc1ccc(O)cc1)C(=O)N/N=C/c1ccccc1O (centres undefined)", "inactive"],
  ["OCC12CCCC(CO)(COC1)C2O (centres undefined)", "inactive"],
  ["COc1ccc(-c2cc(/C=C/C(=O)c3ccc(OC)c(OC)c3)[nH]n2)cc1", "inactive"]
]}

====

tested on: RXF 393 renal; experiment: NCI-60 one-dose screen, 48 h (100 = growth as untreated, 0 = no growth, -100 = all killed); conditions: 10 µM unless noted
The panel holds about 83,000 compounds, 20% with a hit somewhere; the sample as a whole holds those more often.

{"columns": ["compound", "measureUnit", "growth"],
 "data": [
  ["CC(c1ccccc1)N1C(=O)C(C2SC(=S)N(C(C)c3ccccc3)C2=O)SC1=S (stereo not given)", "%", 85.6],
  ["COc1cc2[nH]c(C(=O)c3cc(OC)c(OC)c(OC)c3)c(N)c2cc1C#CCO", "%", 1.88],
  ["CC(C)=CCC[C@](C)(O)[C@H]1CC[C@]2(C)[C@@H]1CC[C@@H]1[C@@]3(C)C/C(=C/c4cccc([N+](=O)[O-])c4)C(=O)C(C)(C)[C@@H]3CC[C@]12C", "%", 90.1],
  ["Fc1ccc(Nc2nnc(-c3ccc(Cl)cc3)o2)cc1", "%", 100],
  ["Cc1ccc(S(=O)(=O)Nc2ccc(-c3cc(-c4cccc(F)c4)c(C#N)c(=O)[nH]3)cc2)cc1", "%", 83.1],
  ["COc1ccc(/C=C/C(=O)c2ccc([N+](=O)[O-])cc2)cc1", "%", 110],
  ["COc1cccc(-c2nn(-c3ccccc3)cc2-c2ccnc(NCCCNS(=O)(=O)c3ccc(Cl)cc3)c2)c1", "%", 46.4],
  ["C/C(=N\\Nc1cc(C)c2ccccc2n1)c1ccccn1", "%", -77.4],
  ["Cc1ccc(/C=C(\\C#N)c2cc3ccccc3n2C)cc1", "%", 20.6],
  ["COc1cc2c(cc1OC)C(=O)/C(=C/c1cc(-c3ccc4c(c3)OCO4)n[nH]1)C2", "%", -39.8],
  ["NCCNc1nc(-c2ccccc2)nc2nc(-c3ccccc3)oc12", "%", 85.9],
  ["N#C/C(=C\\c1ccc(-c2ccc(Br)cc2)o1)c1nc(-c2ccco2)cs1", "%", 101],
  ["CCCCCCCC(=O)SCC/C=C/[C@@H]1CC(=O)NCc2cccc(n2)CN(Cc2ccc(Cl)cc2)CC(=O)N[C@@H](C(C)C)C(=O)O1", "%", -20.4],
  ["CCCC1CCCCN1C(=O)OCC(C)C (stereo not given)", "%", 119],
  ["COc1ccc2nc(-c3c(-c4ccccc4)nc4ncccn34)[nH]c2c1", "%", 104],
  ["Oc1cccc2oc(=S)[nH]c12", "%", 112],
  ["COc1ccc(C2=NN(c3nc(-c4ccc(OC)cc4)c(C#N)c(=O)n3C)C(=O)CC2)cc1", "%", 97.5],
  ["Cc1cc(N(CCCNc2ccnc3cc(Cl)ccc23)Cc2ccco2)nc(N2CCN(C)CC2)n1", "%", 35.9],
  ["COc1ccc2nc(-c3cc(-c4cc(OC)c(OC)c(OC)c4)n[nH]3)[nH]c2c1", "%", 45.8],
  ["CC1(C)c2ccccc2C(=O)C1(Br)Cc1ccccc1 (stereo not given)", "%", 83.5]
]}
